# Test system: M. dispar NCTC 10125
# procedureDetails: MIC against mycoplasma in vitro
# Type: cell-based
# assayContext: 144 h; M. dispar NCTC 10125; 6 days, 37° C.; read-out: MIC
reportedEndpoint: log10(MIC) (log10 of the value in µg/mL)

molecule | reportedEndpoint | reportedResult
C/C(=C/c1ncc(-c2ccccc2)o1)C[C@@H]1OC[C@H](C[C@@H]2O[C@H]2[C@@H](C)[C@H](C)O)[C@@H](O)[C@H]1O [Example 2] | log10(MIC) | 0.40
C/C(=C\c1ncc(-c2ccc([S+](C)[O-])cc2)o1)C[C@@H]1OC[C@H](C[C@@H]2O[C@H]2[C@@H](C)[C@H](C)O)[C@@H](O)[C@H]1O (stereo partly shown) [Example 11] | log10(MIC) | -1.00
C/C(=C\c1ncc(-c2cccc(S(C)(=O)=O)c2)o1)C[C@@H]1OC[C@H](C[C@@H]2O[C@H]2[C@@H](C)[C@H](C)O)[C@@H](O)[C@H]1O [Example 23] | log10(MIC) | -0.30
C/C(=C\c1ncc(-c2ccc([N+](=O)[O-])cc2)o1)C[C@@H]1OC[C@H](C[C@@H]2O[C@H]2[C@@H](C)[C@H](C)O)[C@@H](O)[C@H]1O [Example 3] | log10(MIC) | -1.30
C/C(=C\c1ncc(CCCCCCCC(=O)O)o1)C[C@@H]1OC[C@H](C[C@@H]2O[C@H]2[C@@H](C)[C@H](C)O)[C@@H](O)[C@H]1O [Example 12] | log10(MIC) | 0.70
C/C(=C\c1ncc(CCCCCCCCO)o1)C[C@@H]1OC[C@H](C[C@@H]2O[C@H]2[C@@H](C)[C@H](C)O)[C@@H](O)[C@H]1O [Example 19] | log10(MIC) | -0.30
C/C(=C\c1ncc(C)o1)C[C@@H]1OC[C@H](C[C@@H]2O[C@H]2[C@@H](C)[C@H](C)O)[C@@H](O)[C@H]1O [Example 14, 5-Methyl-2-(1-normon-2-yl) oxazole A] | log10(MIC) | -0.30
C/C(=C\c1ncc(-c2ccccc2)o1)C[C@@H]1OC[C@H](C[C@@H]2O[C@H]2[C@@H](C)[C@H](C)O)[C@@H](O)[C@H]1O [Example 1, 2-(1-normon-2-yl)-5-phenyloxazole A] | log10(MIC) | -1.00
COC(=O)CCCCCCCc1cnc(/C=C(\C)C[C@@H]2OC[C@H](C[C@@H]3O[C@H]3[C@@H](C)[C@H](C)O)[C@@H](O)[C@H]2O)o1 [Example 7] | log10(MIC) | 0.40
C/C(=C\c1cc(-c2ccccc2)on1)C[C@@H]1OC[C@H](C[C@@H]2O[C@H]2[C@@H](C)[C@H](C)O)[C@@H](O)[C@H]1O [Example 34, 3-(1-Normon-2-yl)-5-phenylisoxazole A] | log10(MIC) | -0.30
C/C(=C\c1cc(C)on1)C[C@@H]1OC[C@H](C[C@@H]2O[C@H]2[C@@H](C)[C@H](C)O)[C@@H](O)[C@H]1O [Example 33, 5-Methyl-3-(1-normon-2-yl) isoxazole A] | log10(MIC) | -0.30
COC(=O)c1ccc(-c2cnc(/C=C(\C)C[C@@H]3OC[C@H](C[C@@H]4O[C@H]4[C@@H](C)[C@H](C)O)[C@@H](O)[C@H]3O)o2)cc1 [Example 16] | log10(MIC) | -1.00
CSc1cccc(-c2cnc(/C=C(\C)C[C@@H]3OC[C@H](C[C@@H]4O[C@H]4[C@@H](C)[C@H](C)O)[C@@H](O)[C@H]3O)o2)c1 [Example 22] | log10(MIC) | -0.30
